Tested on: mPer2Luc MEF
Protocol details: PER2::LUC luminescence relative to vehicle control (fold of vehicle); higher = higher PER2::LUC reporter signal
Experimental parameters: time after treatment 24 h; 10 µM
Whole data set: some 5,300 compounds, median “PER2::LUC luminescence relative to vehicle control” near 0.96, cut for the highest 2% near 1.3. This is one part of a sample in which the highest values are shown more often than they occur.
PER2::LUC luminescence vs 1: at or above is Fulfilled, below is Not fulfilled.

Compound: CC(C(=O)O[C@]12CCC[C@H](CC1)N2C)c1ccc(Br)cc1 (stereo partly specified)
Label: Not fulfilled

Compound: CN(C)[C@@H]1c2onc(OCc3ccccc3)c2C(=O)[C@@]2(O[Si](C)(C)C(C)(C)C)C(=O)C=CC[C@@H]12
Label: Not fulfilled

Compound: NC1(C(=O)O)CCc2cc(P(=O)(O)O)ccc21 (racemic)
Label: Fulfilled

Compound: NS(=O)(=O)C#Cc1ccccc1
Label: Fulfilled

Compound: O=C(O[C@H]1[C@H](Oc2ccccc2COC(=O)C2(O)C=CCCC2=O)O[C@H](CO)[C@@H](O)[C@@H]1O)c1ccccc1 (stereo partly specified)
Label: Not fulfilled

Data request: Hi team, for CCOC(=O)c1cn(-c2c(F)c(F)c(C#N)c(F)c2F)c2c(F)c(F)c(F)cc2c1=O , is the recorded PER2::LUC luminescence at or above 1?
Data returned: Fulfilled

Data request: Do the same for c1ccc2[nH]c(-c3cscn3)nc2c1 please
Data returned: Fulfilled

Data request: Repeat for the following compound: N[C@](CCCCB(O)O)(CCN1CCCCC1)C(=O)O
Data returned: Fulfilled

Data request: Then this compound: O=C1NC(=O)/C(=C\c2ccc3nccnc3c2)S1
Data returned: Fulfilled

Data request: Then this compound: CC(Cc1ccccc1)Nc1ncnc2c1ncn2C1OC(CO)C(O)C1O (single isomer, unassigned; (-))
Data returned: Not fulfilled

Data request: And OC[C@H]1O[C@@H](n2cnc3c(Nc4ccccc4)ncnc32)[C@H](O)[C@@H]1O ?
Data returned: Fulfilled

Data request: Request: CCCC(=O)NCCc1c(I)[nH]c2ccc(OC)cc12
Data returned: Not fulfilled

Data request: Next up: Cc1nc(C#Cc2cccnc2)cs1
Data returned: Fulfilled

Data request: Could you do the same for O=C(Nc1ccccc1)c1ccccc1O , please?
Data returned: Fulfilled

====

I'd appreciate it if you could supply PER2::LUC luminescence values for the items below.
System: mPer2Luc MEF
Protocol details: PER2::LUC luminescence relative to vehicle control (fold of vehicle); higher = higher PER2::LUC reporter signal
Experimental parameters: time after treatment 30 h; 10 µM
In all, about 5,300 compounds were measured (“PER2::LUC luminescence relative to vehicle control”: median about 0.96, highest 2% from about 1.3 on). This excerpt belongs to a sample that is enriched for the highest values.
Give bare numbers.

Solved cases (5 shown):
Compound: NS(=O)(=O)C#Cc1ccccc1
Measured metric: PER2::LUC luminescence
Val: 0.903

Compound: O=C(O)/C=C/c1ccc(O)c(O)c1
Measured metric: PER2::LUC luminescence
Val: 0.894

Compound: CC1(C)S[C@@H]2[C@H](NC(=O)C(C(=O)O)c3ccccc3)C(=O)N2[C@H]1C(=O)O (stereo not given in full)
Measured metric: PER2::LUC luminescence
Val: 1.03

Compound: O[C@@](Cc1ncc(CC2(C(F)(F)F)CC2)[nH]1)(c1ccc(-n2cccn2)cc1)C(F)(F)F
Measured metric: PER2::LUC luminescence
Val: 0.921

Compound: COc1cccc(OC)c1C(=O)N[C@@H]1C(=O)N2[C@@H]1SC(C)(C)[C@@H]2C(=O)O
Measured metric: PER2::LUC luminescence
Val: 0.823

Please give PER2::LUC luminescence, item by item, for the list that follows.
1. O=[N+]([O-])c1cc(C(F)(F)F)cc([N+](=O)[O-])c1NNC(=S)Nc1ccc(F)cc1
2. O=C(/C=C/c1ccc(O)c(O)c1)OCCc1ccccc1
3. O=C1/C(=C/c2ccc(O)c(O)c2)Oc2c1ccc(O[C@@H]1O[C@H](CO)[C@@H](O)[C@H](O)[C@H]1O)c2O
4. COCCOC(=O)C1=C(C)NC(C)=C(C(=O)OC(C)C)C1c1cccc([N+](=O)[O-])c1 (stereo not given)
5. COc1cccc(-c2ccc(NC(=O)C3=C(C(=O)O)CCC3)c(F)c2)c1
6. O=C(CCCCCCCCCCCCC1CCCC1)Nc1ccc(S(=O)(=O)c2ccc(NC(=O)CCCCCCCCCCCCC3CCCC3)cc2)cc1
7. CC(Oc1ccccc1)C(=O)N[C@@H]1C(=O)N2[C@@H]1SC(C)(C)[C@@H]2C(=O)O (stereo not given in full)

Data returned:
1. 0.671
2. 0.361
3. 0.93
4. 1.17
5. 1.75
6. 1.02
7. 0.902

Give measured PER2::LUC luminescence for every item shown.
1. C=CC(C)(C)c1cc(/C=C\C(=O)c2ccc(O)cc2)c(OC)cc1O
2. CCCCCCCCCCC1=C(C)C(=O)C(OC)=C(OC)C1=O
3. C[C@]12CC[C@@H]3c4ccc(O)cc4CC[C@H]3[C@@H]1C[C@H](O)[C@@H]2O

Data returned:
[0.862, 0.992, 0.987]

For every item in the list below, what is its measured PER2::LUC luminescence?
1. COc1cccc(C(=O)NCCN2CCN(c3ccc(Cl)cc3)CC2)c1
2. COc1cc(-c2oc3cc(O)ccc3c(=O)c2O)ccc1O
3. NC1(C(=O)O)CCc2cc(P(=O)(O)O)ccc21 (racemic)
4. CCCCN1CCCC1CNC(=O)c1cc(C#N)c2ccccc2c1OC (stereo not given)
5. C=CCn1c(=O)c2c(nc(-c3ccccc3)n2C)n(C)c1=O

Data returned:
1: 0.96; 2: 1.2; 3: 1.01; 4: 1.58; 5: 0.951

====

Test system: mPer2Luc MEF
Protocol details: PER2::LUC luminescence relative to vehicle control (fold of vehicle); higher = higher PER2::LUC reporter signal
Experimental parameters: time after treatment 24 h; 10 µM
The full ranking holds about 5,300 compounds; the median of “PER2::LUC luminescence relative to vehicle control” is about 0.96, and the highest 2% start at about 1.3. The full list was thinned out, with the highest values kept by preference.
Kindly state PER2::LUC luminescence for each of the entries shown.
Answers are plain numbers.

Worked examples follow.
Molecule: CC[C@H](C)[C@@H]([C@@H](CC(=O)N1CCC[C@H]1[C@H](OC)[C@@H](C)C(=O)N[C@@H](Cc1ccccc1)c1nccs1)OC)N(C)C(=O)[C@@H](NC(=O)[C@@H](NC)C(C)C)C(C)C
Measured metric: PER2::LUC luminescence
Val: 0.338

Molecule: CCCCC/C=C\C[C@@H](O)/C=C/c1cccc(C[C@@H](O)CCCCO)n1
Measured metric: PER2::LUC luminescence
Val: 1.07

Molecule: CC(=O)c1ccc(S(=O)(=O)NC(=O)NC2CCCCC2)cc1
Measured metric: PER2::LUC luminescence
Val: 1.02

Molecule: O=C(/C=C/c1ccccc1)c1ccc(O)cc1O
Measured metric: PER2::LUC luminescence
Val: 1.21

Molecule: COc1cc(NC(=O)c2ccccn2)ccc1Cl
Measured metric: PER2::LUC luminescence
Val: 1.13

Molecule: CCCCN(CCCC)S(=O)(=O)c1ccc(C(=O)O)cc1
Measured metric: PER2::LUC luminescence
Val: 0.899

Molecule: COc1cc(O)c(C(=O)/C=C/c2ccccc2)c(OC)c1
Measured metric: PER2::LUC luminescence
Val: 0.907

Molecule: CC1NC(=O)NC1=O (configuration not stated)
Measured metric: PER2::LUC luminescence
Val: 0.946

For every listed record, write down its PER2::LUC luminescence.
1. CCc1c(C(=O)NNC(=O)C(O)c2cc(F)cc(F)c2)ccc(O)c1C (configuration not stated)
2. COc1ccc(C(=O)c2ccccc2C(=O)O)c(O)c1

Data returned:
1: 0.99; 2: 1.19

Batch request: PER2::LUC luminescence per item, same order as input.
1. CCOc1ccc(Oc2ccc(OCc3cc(F)ccc3F)cc2)c(N)c1
2. FC(F)(F)c1cccc(-c2noc(-c3cc(-c4ccccc4)c(C(F)(F)F)s3)n2)c1
3. C#CCCC(=O)O
4. CC(C)(O)c1ccc2c(c1)ncn2-c1cccc(-c2ccccc2C#N)c1
5. CC(C)(C)OC(=O)N1CCC(OCc2nc(-c3ccncc3)no2)CC1
6. O=C(O)c1cc(N(Cc2ccccc2O)Cc2cc(O)ccc2O)ccc1O

Data returned:
1.03
1.17
1.07
0.829
0.986
1.05

Dear reader, for each entry below, please note its PER2::LUC luminescence.
1. CSC[C@H]1O[C@@H](n2cnc3c(N)ncnc32)[C@H](O)[C@@H]1O
2. C[C@@H](O)CCCCn1c(=O)c2c(ncn2C)n(C)c1=O

Data returned:
0.938
0.991
